For each entry below, report its Purity (%) value.
Experiment: Stability test (high temperature, high humidity and light tests)
Assay type: physicochemical
Conditions: High temperature (60° C.), 10 days
Your answer should be a number followed by the unit of measure.

Quick one: give me Purity (%) for each item below, same order please.
1. COC(=O)C1=C(CN2CCN3C(=O)N(c4ccc(CCC(=O)O)cc4F)C[C@@H]3C2)N=C(c2nccs2)N[C@H]1c1ccc(F)cc1Cl.O=S(=O)(O)O [Sulfate crystal form B of the compound having Formula (Ia)]
2. COC(=O)C1=C(CN2CCN3C(=O)N(c4ccc(CCC(=O)O)cc4F)C[C@@H]3C2)N=C(c2nccs2)N[C@H]1c1ccc(F)cc1Cl.O=S(=O)(O)O [Sulfate crystal form A of the compound having Formula (Ia)]
3. COC(=O)C1=C(CN2CCN3C(=O)N(c4ccc(CCC(=O)O)cc4F)C[C@@H]3C2)NC(c2nccs2)=N[C@H]1c1ccc(F)cc1Cl
4. Br.COC(=O)C1=C(CN2CCN3C(=O)N(c4ccc(CCC(=O)O)cc4F)C[C@@H]3C2)N=C(c2nccs2)N[C@H]1c1ccc(F)cc1Cl
5. COC(=O)C1=C(CN2CCN3C(=O)N(c4ccc(CCC(=O)O)cc4F)C[C@@H]3C2)NC(c2nccs2)=N[C@H]1c1ccc(F)cc1Cl.N=C(N)NCCC[C@H](N)C(=O)O

Result block:
1: 98.68%; 2: 99.12%; 3: 94.07%; 4: 98.93%; 5: 99.42%

====

Assay: Pharmacokinetic evaluation of experimental animals after oral administration
Type: in vivo, Beagle dogs
Details: dog, blood; beagle dogs, oral via capsules, 10 mg/kg; read-out: AUC0-t
Description: Blood samples were taken at 0.25, 0.5, 1, 2, 4, 6, 8 and 24 hours from forelimb vein after the administration, and collected in anticoagulation tube with EDTA-K2. After liquid-liquid extraction, the blood samples were quantitatively analyzed on a triple quadrupole tandem mass spectrometer using multiple reactive ion monitoring (MRM). Pharmacokinetic parameters (AUC0-t and Cmax) were calculated using a noncompartmental method by WinNonLin 6.3 software.
measuredEndpoint: AUC0-t (ng·h/mL)
Give bare numbers, in ng·h/mL.

AUC0-t in this record for COC(=O)C1=C(CN2CCN3C(=O)N(c4ccc(CCC(=O)O)cc4F)C[C@@H]3C2)NC(c2nccs2)=N[C@H]1c1ccc(F)cc1Cl [Compound having Formula (I)] : 6340

====

Experiment: Stability test (high temperature, high humidity and light tests)
Type: physicochemical
Settings: High temperature (60° C.), 5 days
measuredEndpoint: Purity (%)
Numbers only, in %.

COC(=O)C1=C(CN2CCN3C(=O)N(c4ccc(CCC(=O)O)cc4F)C[C@@H]3C2)N=C(c2nccs2)N[C@H]1c1ccc(F)cc1Cl.O=P(O)(O)O [Phosphate crystal form A of the compound having Formula (Ia)]	98.86

Moving on to another compound below.
Looking up COC(=O)C1=C(CN2CCN3C(=O)N(c4ccc(CCC(=O)O)cc4F)C[C@@H]3C2)N=C(c2nccs2)N[C@H]1c1ccc(F)cc1Cl.O=S(=O)(O)O [Sulfate crystal form A of the compound having Formula (Ia)] , I see its Purity (%) listed as 99.16

====

Experiment: Stability test (high temperature, high humidity and light tests)
Format: physicochemical
Details: High humidity (90% RH), 25° C., 10 days
Give Purity (%) for every item shown.
Give bare numbers, in %.

Example entries begin here.
CN(C)C=O.COC(=O)C1=C(CN2CCN3C(=O)N(c4ccc(CCC(=O)O)cc4F)C[C@@H]3C2)NC(c2nccs2)=N[C@H]1c1ccc(F)cc1Cl	98.71
COC(=O)C1=C(CN2CCN3C(=O)N(c4ccc(CCC(=O)O)cc4F)C[C@@H]3C2)NC(c2nccs2)=N[C@H]1c1ccc(F)cc1Cl.N=C(N)NCCC[C@H](N)C(=O)O	99.39
COC(=O)C1=C(CN2CCN3C(=O)N(c4ccc(CCC(=O)O)cc4F)C[C@@H]3C2)N=C(c2nccs2)N[C@H]1c1ccc(F)cc1Cl.O=S(=O)(O)O [Sulfate crystal form B of the compound having Formula (Ia)]	98.94
COC(=O)C1=C(CN2CCN3C(=O)N(c4ccc(CCC(=O)O)cc4F)C[C@@H]3C2)N=C(c2nccs2)N[C@H]1c1ccc(F)cc1Cl.O=P(O)(O)O [Phosphate crystal form A of the compound having Formula (Ia)]	99.07
COC(=O)C1=C(CN2CCN3C(=O)N(c4ccc(CCC(=O)O)cc4F)C[C@@H]3C2)NC(c2nccs2)=N[C@H]1c1ccc(F)cc1Cl [Compound having Formula (I)]	98.75
COC(=O)C1=C(CN2CCN3C(=O)N(c4ccc(CCC(=O)O)cc4F)C[C@@H]3C2)N=C(c2nccs2)N[C@H]1c1ccc(F)cc1Cl.CS(=O)(=O)O	99.36
COC(=O)C1=C(CN2CCN3C(=O)N(c4ccc(CCC(=O)O)cc4F)C[C@@H]3C2)N=C(c2nccs2)N[C@H]1c1ccc(F)cc1Cl.O=P(O)(O)O [Phosphate crystal form C of the compound having Formula (Ia)]	99.36
COC(=O)C1=C(CN2CCN3C(=O)N(c4ccc(CCC(=O)O)cc4F)C[C@@H]3C2)N=C(c2nccs2)N[C@H]1c1ccc(F)cc1Cl.Cl	99.30

# map each compound to its Purity (%)
1. Br.COC(=O)C1=C(CN2CCN3C(=O)N(c4ccc(CCC(=O)O)cc4F)C[C@@H]3C2)N=C(c2nccs2)N[C@H]1c1ccc(F)cc1Cl
2. COC(=O)C1=C(CN2CCN3C(=O)N(c4ccc(CCC(=O)O)cc4F)C[C@@H]3C2)N=C(c2nccs2)N[C@H]1c1ccc(F)cc1Cl.O=S(=O)(O)O [Sulfate crystal form A of the compound having Formula (Ia)]

Result block:
1. 98.69
2. 99.22
